Origin of the recorded values: patent US20060047114A1

- Target of assay: rat histamine H3 receptors (Rattus norvegicus)
- Construct: Frozen rat frontal brain or frozen human post-mortem frontal brain is homogenized; from tissue; host or cells: rat frontal brain membranes
- Sequence (Q9QYN8 whole entry): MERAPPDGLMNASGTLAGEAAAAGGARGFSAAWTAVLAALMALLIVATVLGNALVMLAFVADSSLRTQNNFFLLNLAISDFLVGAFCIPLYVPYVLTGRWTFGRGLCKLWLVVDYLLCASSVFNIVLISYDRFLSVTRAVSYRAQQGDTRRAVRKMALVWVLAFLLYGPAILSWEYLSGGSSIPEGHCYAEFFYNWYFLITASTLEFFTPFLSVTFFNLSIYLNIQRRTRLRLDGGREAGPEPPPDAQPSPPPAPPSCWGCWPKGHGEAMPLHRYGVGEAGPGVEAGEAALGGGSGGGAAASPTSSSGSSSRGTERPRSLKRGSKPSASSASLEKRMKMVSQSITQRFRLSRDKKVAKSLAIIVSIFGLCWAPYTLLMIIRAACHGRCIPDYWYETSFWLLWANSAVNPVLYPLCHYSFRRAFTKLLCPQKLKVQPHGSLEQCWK
- Assay comment: Rat H3 binding (3H-N-methylhistamine displacement, frontal brain membranes)
- Test settings: radioligand 1 nM 3H-N-methylhistamine, 1-hour incubation, read-out: Rat H3 activity (Kj)
Measured property: Ki (nM)

Check out these entries, answers already filled in.
**Query** Kindly indicate its recorded Ki. Item: CC(=O)Nc1ccc(CN2C[C@@H]3[C@@H](COCCCN4CCCCC4)[C@@H]3C2)cc1
**Result** 45

**Query** Kindly indicate its recorded Ki. Item: c1ccc(CCN2C[C@@H]3[C@@H](COCCCN4CCCCC4)[C@@H]3C2)cc1
**Result** 78

**Query** Kindly indicate its recorded Ki. Item: c1cncc(-c2ccc(CN3C[C@@H]4[C@@H](COCCCN5CCCCC5)[C@@H]4C3)cc2)c1
**Result** 63

(A) FC(F)C(F)(F)Oc1ccc(CN2C[C@@H]3[C@@H](COCCCN4CCCCC4)[C@@H]3C2)cc1
(B) c1ccc(-c2ccc(CN3C[C@@H]4[C@@H](COCCCN5CCCCC5)[C@@H]4C3)cc2)cc1
**Query** Between these two entries, A and B , state which has the higher Ki. Answer by stating the label of the chosen item.
**Result** A

(P) c1ccc(Oc2cccc(CN3C[C@@H]4[C@@H](COCCCN5CCCCC5)[C@@H]4C3)c2)cc1
(Q) CC(=O)c1ccc(CN2C[C@@H]3[C@@H](COCCCN4CCCCC4)[C@@H]3C2)cc1
**Query** Between these two entries, P and Q , state which has the higher Ki. Answer by stating the label of the chosen item.
**Result** Q
(Q: 116 nM, P: 51 nM)
